# system-name: Phenylethanolamine N-methyltransferase (Homo sapiens)
# assay: Primary Screen for Target Class Profiling of Small Molecule Inhibitors of Methyltransferases; note: % is set by controls: 0 for no effect and ±100 for the full control effect
# details: purified enzyme, MTase-Glo SAH luminescence; measured here: PNMT inhibition; at 40 µM; stronger effect = lower value
# Protocol: PI: Matthew D. Hall Ph.D. and Quinlin M. Hanson Ph.D. National Center for Advancing Translational Sciences (NCATS) National Institute of Health (NIH), Rockville, MD […] High-through put screening assays were developed at the National Center for Advancing Translational Science (NCATS) for the enzymes NNMT, PNMT, HNMT, GNMT, COMT, and GAMT. Enzymatic activity was measured as a function of SAM cofactor conversion using the MTase Glo kit (Promega) for all enzymes. […]
About 970 (3.9%) of roughly 25,000 compounds were called active. Inconclusive results (about 8%) are left out. The entries come from a sample that favours actives as a whole.
# activity change, negative = inhibition listing for each entry below
Note: unit % is implicit; provide only the numeric part.

Worked examples follow.
INSERT INTO results (compound, unit_tag, numeric_result) VALUES
  ('CCCS(=O)(=O)N1CCCC(OCc2noc(C3CCOCC3)n2)C1 (centres undefined)', '%', -7.82),
  ('Cc1nc2c(c(NC3CC3)n1)CCN(C(=O)CCc1cccnc1)CC2', '%', -4.07),
  ('COc1ccccc1CCN1C(=O)c2ccc(-c3ccco3)n2CC1(C)C(=O)NC1CCCCCC1 (centres undefined)', '%', -2.83);

Attention now turns to another entry.
Enquiry: For the compound O=C(NCC1CCCCC1)c1cc(-c2cc(Cl)cc(Cl)c2)c2nncn2n1 , give its reported activity change, negative = inhibition.
Return: -2.36

###

# system-name: Nicotinamide N-methyltransferase (Homo sapiens) (UniProt P40261)
# Sequence (P40261 whole entry, looked up): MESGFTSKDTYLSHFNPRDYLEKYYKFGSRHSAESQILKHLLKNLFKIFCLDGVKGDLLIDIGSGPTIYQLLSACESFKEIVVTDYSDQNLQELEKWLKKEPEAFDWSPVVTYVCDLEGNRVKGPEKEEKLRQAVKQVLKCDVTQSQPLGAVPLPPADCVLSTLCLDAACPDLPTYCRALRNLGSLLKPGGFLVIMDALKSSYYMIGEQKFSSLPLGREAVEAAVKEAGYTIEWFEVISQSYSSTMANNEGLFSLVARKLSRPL
# assay: Primary Screen for Target Class Profiling of Small Molecule Inhibitors of Methyltransferases; note: % is set by controls: 0 for no effect and ±100 for the full control effect
# details: purified enzyme, MTase-Glo SAH luminescence; measured here: NNMT inhibition; at 40 µM; stronger effect = lower value
Hit rate of the full screen: of about 25,000 compounds, about 970 (3.9%) were called active. Not shown: some 8% with an inconclusive outcome. The sample holds actives, similar compounds and a random draw of the others, so the mix is not that of the screen.
Readings of activity change, negative = inhibition for the listed compounds
Provide only the numeric value, understood in %.

INSERT INTO measurements (compound, measure, unit_tag, numeric_result) VALUES
  ('CCCN1C(=O)c2cc3sccc3n2CC1(C)C(=O)NC1CCC(C)CC1 (stereo not drawn)', 'activity change, negative = inhibition', '%', 0.936),
  ('CC1(C(=O)NC2CCCCC2)Cn2c(nc3ccccc32)C(=O)N1CCCc1ccccc1 (stereo not drawn)', 'activity change, negative = inhibition', '%', 2.79),
  ('CC(C)n1c(=O)c2ccc(C(=O)NC3CCCCC3)cc2n2c(=O)n(CC(=O)NC3CCCCC3)nc12', 'activity change, negative = inhibition', '%', -1.76);

Enquiry: Specify activity change, negative = inhibition for CCCN1C(=O)c2cc(C(=O)N3CCC(C)CC3)nn2CC1(C)C(=O)NC1CCCC1 (stereo not drawn) and stop.
Return: -4.98

Enquiry: Item CCNC(=O)C#Cc1ccc2c(C(=Nc3ccc(CN(C)C)cc3)c3ccccc3)c(O)[nH]c2c1 : provide activity change, negative = inhibition
Return: -34.2

Enquiry: Check the records and state activity change, negative = inhibition for CCN1CCN(C(=O)Cn2nc(C)c3sc(-c4ccccc4)nc3c2=O)CC1
Return: -11.6

Enquiry: Quick one: give measured activity change, negative = inhibition for COc1cc(C)c(C(=O)Oc2cc(C)c(C(=O)Oc3cc(C)c(C(=O)NC(C)C(=O)O)c(O)c3)c(O[C@@H]3O[C@H](CO)[C@@H](O)[C@H](O)[C@H]3OC(C)=O)c2)c(OC)c1 (stereo partly drawn)
Return: -10.4

Enquiry: State its activity change, negative = inhibition: COC(=O)CCc1cc2ccoc2c(OC)c1O[C@@H]1O[C@H](CO)[C@@H](O)[C@H](O)[C@H]1O
Return: -6.92

###

# system-name: Glycine N-methyltransferase (Homo sapiens) (UniProt Q14749)
# Sequence (Q14749 whole entry, looked up): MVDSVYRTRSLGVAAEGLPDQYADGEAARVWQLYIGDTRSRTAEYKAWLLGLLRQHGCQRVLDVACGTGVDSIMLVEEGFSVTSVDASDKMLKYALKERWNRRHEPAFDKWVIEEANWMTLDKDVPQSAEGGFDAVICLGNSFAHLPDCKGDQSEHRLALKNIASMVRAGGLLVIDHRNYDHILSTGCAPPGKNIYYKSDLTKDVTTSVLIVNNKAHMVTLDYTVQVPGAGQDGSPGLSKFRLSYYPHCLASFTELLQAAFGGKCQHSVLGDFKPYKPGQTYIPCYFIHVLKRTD
# assay: Primary Screen for Target Class Profiling of Small Molecule Inhibitors of Methyltransferases; note: % is set by controls: 0 for no effect and ±100 for the full control effect
# details: purified enzyme, MTase-Glo SAH luminescence; measured here: GNMT inhibition; at 40 µM; stronger effect = lower value
About 970 (3.9%) of roughly 25,000 compounds were called active. Inconclusive results (about 8%) are left out. Shown is part of a subset that was picked to be rich in actives.
Property: activity change, negative = inhibition; scope: individual compounds
Kindly provide the numeric value in % only, without the unit symbol.

Consider the following illustrative entries.
INSERT INTO assay_data (compound, numeric_result) VALUES
  ('CC(C)NC(=O)c1ccccc1OCC1CCCN(Cc2cccnc2)C1 (stereo not given)', -1.68),
  ('COc1ccccc1N1CCN(S(=O)(=O)c2cc3c(cc2C)n(C)c(=O)n3C)CC1', 5.66);

Enquiry: Provide only the value of recorded activity change, negative = inhibition for COCCOc1cc(=O)n2c(c1C(=O)NCc1ccccc1)CCOCC2
Return: 1.04

###

# system-name: Guanidinoacetate N-methyltransferase (Homo sapiens)
# assay: Primary Screen for Target Class Profiling of Small Molecule Inhibitors of Methyltransferases; note: % is set by controls: 0 for no effect and ±100 for the full control effect
# details: purified enzyme, MTase-Glo SAH luminescence; measured here: GAMT inhibition; at 40 µM; stronger effect = lower value
# Experimental: PI: Matthew D. Hall Ph.D. and Quinlin M. Hanson Ph.D. National Center for Advancing Translational Sciences (NCATS) National Institute of Health (NIH), Rockville, MD […] High-through put screening assays were developed at the National Center for Advancing Translational Science (NCATS) for the enzymes NNMT, PNMT, HNMT, GNMT, COMT, and GAMT. Enzymatic activity was measured as a function of SAM cofactor conversion using the MTase Glo kit (Promega) for all enzymes. […]
Hit rate of the full screen: of about 25,000 compounds, about 970 (3.9%) were called active. Not shown: some 8% with an inconclusive outcome. The entries come from a sample that favours actives as a whole.
Measured activity change, negative = inhibition of individual entries
Numeric answer only, unit % assumed.

Previously resolved entries follow.
INSERT INTO assay_data (compound, unit_tag, numeric_result) VALUES
  ('CCOc1ccccc1CN1CCC(Cc2nc(-c3cccnc3)n[nH]2)C1 (stereo not given)', '%', -1.54),
  ('Cc1ccc(N2C(=O)c3cc(-c4ccco4)nn3CC2(C)C(=O)NC2CCCCC2)cc1Cl (stereo not given)', '%', 2.7),
  ('COC(=O)c1ncn2c1C(=O)N(Cc1ccc(OC)cc1)C(C)(C(=O)NCc1ccccc1)C2 (stereo not given)', '%', -0.727),
  ('Oc1cc2c(cc1O)CN(C(=S)NCCc1ccc(Cl)cc1)CCC2', '%', 4.04),
  ('CCOC(=O)c1cc2n(n1)CC(C)(C(=O)NC1CCCC1)N(c1ccc(C)cc1)C2=O (stereo not given)', '%', 4.54);

Enquiry: Quickly give me recorded activity change, negative = inhibition for Cn1nccc1C(=O)N1CCC(Cc2nc(C3CC3)n[nH]2)C1 (stereo not given)
Return: -1.84

Enquiry: Return value of activity change, negative = inhibition for input COc1ccc(CNc2nc3c(S(=O)(=O)c4ccc(C)cc4)nnn3c3ccccc23)cc1 , no commentary.
Return: 0.613

Enquiry: Tell us which activity change, negative = inhibition value is on record for CN(Cc1cc(C2CC2)n[nH]1)C(=O)C(c1ccc(F)cc1)N(C)C (stereo not given)
Return: -0.305

###

# system-name: Catechol O-methyltransferase (Homo sapiens) (UniProt P21964)
# Sequence (P21964 whole entry, looked up): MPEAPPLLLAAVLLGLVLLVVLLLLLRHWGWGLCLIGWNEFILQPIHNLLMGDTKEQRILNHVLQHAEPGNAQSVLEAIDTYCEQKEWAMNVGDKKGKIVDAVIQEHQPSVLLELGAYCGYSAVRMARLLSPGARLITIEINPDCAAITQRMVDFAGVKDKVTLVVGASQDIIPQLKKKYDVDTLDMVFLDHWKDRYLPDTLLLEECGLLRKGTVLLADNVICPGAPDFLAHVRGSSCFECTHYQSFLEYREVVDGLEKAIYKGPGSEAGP
# assay: Primary Screen for Target Class Profiling of Small Molecule Inhibitors of Methyltransferases; note: % is set by controls: 0 for no effect and ±100 for the full control effect
# details: purified enzyme, MTase-Glo SAH luminescence; at 40 µM, stronger effect = lower value
In all, about 25,000 compounds went through this assay and about 970 (3.9%) were called active. Roughly 8% stayed inconclusive and do not appear here. This is one part of a sample in which actives are shown more often than they occur.
Parameter: activity change, negative = inhibition. Scope: all listed entries.
Form entry: value (%) — number only.

Recorded activity change, negative = inhibition, per entry:
INSERT INTO results (compound, unit_tag, numeric_result) VALUES
  ('CC1(C(=O)NC2CCCCC2)Cn2c(ccc2-c2ccccc2)C(=O)N1CCC1=CCCCC1 (centres undefined)', '%', 6.36),
  ('CCCn1c(=O)c2ccc(C(=O)NC(C)CC)cc2n2c(=O)n(CC(=O)Nc3ccccc3)nc12 (centres undefined)', '%', -0.37),
  ('N#CSc1cc(SC#N)c(N)nc1N', '%', -62.1),
  ('CC1CC(O)/C=C/C(O)/C=C\C(=O)O1 (centres undefined)', '%', -1.4),
  ('O=C(C1CCCC1)N1CCCC(c2noc(COc3ccccc3)n2)C1 (centres undefined)', '%', -7.8);

Enquiry: Complete the entry with activity change, negative = inhibition for CCCN1C(=O)c2cc(C(=O)NCc3cc(Br)ccc3OC)nn2CC1(C)C(=O)NC1CCCC1 (centres undefined)
Return: -2.6

Enquiry: Provide measured activity change, negative = inhibition value, entry: O=C(c1coc(CN2CCN(C/C=C/c3ccccc3)CC2)n1)N1CCC[C@H]1CO
Return: 1.4

Enquiry: Give activity change, negative = inhibition for the following compound: C[C@@H]1CC[C@]2(C(=O)O[C@@H]3O[C@H](CO)[C@@H](O)[C@H](O)[C@H]3O)CC[C@]3(C)C(=CCC4[C@@]5(C)C[C@@H](O)[C@H](O)[C@](C)(C(=O)O)C5CC[C@]43C)[C@@H]2[C@]1(C)O (some centres undefined)
Return: 4.37

Enquiry: Entry COc1ccc(C(=O)N2CCN(C(=O)N3CC4CC(C3)[C@H]3CCCC(=O)N3C4)CC2)c(OC)n1 (some centres undefined) needs its activity change, negative = inhibition filled in; supply it.
Return: 1.98

Enquiry: # return recorded activity change, negative = inhibition for input COc1cccc(S(=O)(=O)N2CCC([C@H]3[C@@H](OC)C(=O)N3C(C)C)CC2)c1
Return: -16.7

Enquiry: # return recorded activity change, negative = inhibition for input Cc1cc(C[C@@H]2COC[C@@H]2NC(=O)c2cccc(-n3nc(C)cc3C)c2)on1
Return: -7.5

Enquiry: Give recorded activity change, negative = inhibition. COc1cc(NC(=O)CSc2nnc3n(CC(C)C)c(=O)c4ccccc4n23)cc(OC)c1
Return: 1.19

Enquiry: Return value of activity change, negative = inhibition for input COCC(=O)Nc1ncncc1-c1noc([C@@H]2CCCN2Cc2cc(OC)c(OC)c(OC)c2)n1 , no commentary.
Return: -16.9

Enquiry: Item O=C(N[C@@H]1CN(c2ccncn2)C[C@H]1CO)C1CCCC1 : provide activity change, negative = inhibition
Return: -2.82

Enquiry: For the compound Cc1ccc(OCCC2CCN(C(=O)Cn3cnc4c3c(=O)n(C)c(=O)n4C)C2)cc1 (centres undefined) , give its reported activity change, negative = inhibition.
Return: -5.48

Enquiry: Give recorded activity change, negative = inhibition. CC1(C)CCC(C)(C)c2cc3c(cc21)Sc1ccccc1N=C3c1ccc(C(=O)O)cc1
Return: 9.33

Enquiry: Please report activity change, negative = inhibition for the following compound: CCCS(=O)(=O)N1CCCC(Cc2noc(-c3cnccn3)n2)C1 (centres undefined)
Return: -2.88
